system: K562 CRISPRi cells; experiment: Constant region variant library pooled growth screen, K562; assay type: cell-based, human; conditions: sgRNA constant region variant; activity relative to unmodified constant region cr995; mean CRISPRi activity
propertyMeasured: Mean relative activity

[[record]]
molecule = "cr504 (nucleic acid, listed as DNA, chemistry not fully specified) guide: GTTTAAGAGCTAAGCTGGAAACAGCATAGCAAGGTTAAATAAGGCTAGTCCGTTATCAACTGGAAACAGTGGCACCGAGTCGGTGCT"
result = 0.01685

[[record]]
molecule = "cr773 (nucleic acid, listed as DNA, chemistry not fully specified) guide: GTTTAAGAGCTAAGCTGGAAACAGCATAGCAAGGTTAAATAAGGCTTGTCCGTTATCAACTTGGAAAAGTGGCACCGAGTCGGTGCT"
result = 0.01327


Respectfully, I request Mean relative activity for each entry included below.
1. cr648 (nucleic acid, listed as DNA, chemistry not fully specified) guide: GTTTAAGAGCTAAGCTGGAAACAGCATAGCAACTTTAAATAAGTCTAGTACGTTATCAACTTGAAAAAGTGGCACCGAGTCGGTGCT
2. cr834 (nucleic acid, listed as DNA, chemistry not fully specified) guide: GTTTAAGAGCTAAGCTGGAAACAGCATAGCAAGGTTAAATAAGGCTAGTCCGTTATCAACTTGAGAAAGTGGCACCGAGTCGGTGCT

# output
0.008305
0.01861

Hey, can you go through the list below and give me Mean relative activity for every item?
1. cr389 (nucleic acid, listed as DNA, chemistry not fully specified) guide: GTTTAAGAGCTAAGCTGGAAACAGCATAGCAAGTTTAAATAAAACTAGTTTGTTATCAACTTGAAAAAGTGGCACCGAGTCGGTGCT
2. cr092 (nucleic acid, listed as DNA, chemistry not fully specified) guide: GTGTAGGAGCTAAGCTGGAAACAGCATAGCAAGTTTAAATAAGGCTAGTCCGTTATCAACTTGAAAAAGTGGCACCGAGTCGGTGCT

# output
1: 0.01944; 2: 0.006875

# input # lookup: Mean relative activity of cr382 (nucleic acid, listed as DNA, chemistry not fully specified) guide: GTTTAAGAGCTAAGCTGGAAACAGCATAGCAAGGTTAAATAACGCTAGTCGGTTATCAACTTGAAAAAGTGGCACCGAGTCGGTGCT
# output 0.01715
